Consider the following compounds; for each one, report its remaining activity at 10 µM.
target: KDR (Homo sapiens, UniProt P35968); construct: purchased Eurofins Pharma Discovery Services (KinaseProfiler; Cerep BioPrint panel); test: kinase selectivity panel; type: biochemical; conditions: read-out: percentage of control activity (POC), KDR
Sequence (P35968 20-1356): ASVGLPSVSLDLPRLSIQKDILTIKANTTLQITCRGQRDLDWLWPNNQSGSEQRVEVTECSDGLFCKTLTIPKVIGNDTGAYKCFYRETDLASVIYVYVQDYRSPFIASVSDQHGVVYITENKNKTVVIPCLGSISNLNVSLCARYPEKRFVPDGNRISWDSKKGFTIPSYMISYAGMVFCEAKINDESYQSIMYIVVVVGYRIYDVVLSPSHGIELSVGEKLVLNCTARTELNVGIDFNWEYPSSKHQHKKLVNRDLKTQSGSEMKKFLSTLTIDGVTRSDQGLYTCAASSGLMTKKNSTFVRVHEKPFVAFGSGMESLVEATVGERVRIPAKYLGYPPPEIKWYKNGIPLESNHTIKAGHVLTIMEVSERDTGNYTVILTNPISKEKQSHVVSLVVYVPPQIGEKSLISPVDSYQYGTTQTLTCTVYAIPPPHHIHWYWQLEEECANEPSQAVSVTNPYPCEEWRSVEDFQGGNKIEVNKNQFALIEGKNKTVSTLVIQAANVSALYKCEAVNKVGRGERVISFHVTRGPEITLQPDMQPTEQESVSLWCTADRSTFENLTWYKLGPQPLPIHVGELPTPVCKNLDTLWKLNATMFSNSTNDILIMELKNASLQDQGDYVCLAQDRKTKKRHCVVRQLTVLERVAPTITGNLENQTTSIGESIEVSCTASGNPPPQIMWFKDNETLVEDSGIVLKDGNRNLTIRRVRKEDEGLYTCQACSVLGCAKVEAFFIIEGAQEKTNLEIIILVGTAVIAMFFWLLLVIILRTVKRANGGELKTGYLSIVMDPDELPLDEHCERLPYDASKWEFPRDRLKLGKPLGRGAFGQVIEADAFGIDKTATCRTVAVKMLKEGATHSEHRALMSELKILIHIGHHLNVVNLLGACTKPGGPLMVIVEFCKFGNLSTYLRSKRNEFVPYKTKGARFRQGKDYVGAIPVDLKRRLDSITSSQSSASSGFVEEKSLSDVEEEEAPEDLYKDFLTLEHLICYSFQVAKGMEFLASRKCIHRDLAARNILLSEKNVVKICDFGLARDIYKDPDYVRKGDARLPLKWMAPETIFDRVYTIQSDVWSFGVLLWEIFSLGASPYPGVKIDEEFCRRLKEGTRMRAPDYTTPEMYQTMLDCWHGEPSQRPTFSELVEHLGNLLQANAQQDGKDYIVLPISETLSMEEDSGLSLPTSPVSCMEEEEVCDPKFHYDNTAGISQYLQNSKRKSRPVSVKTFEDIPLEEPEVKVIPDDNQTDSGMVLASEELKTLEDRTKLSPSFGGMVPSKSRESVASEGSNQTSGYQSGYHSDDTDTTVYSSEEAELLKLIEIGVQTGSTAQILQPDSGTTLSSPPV
Numbers only, in %.

Guide cases for remaining activity at 10 µM, answers given:
1. CS(=O)(=O)N1CCN(c2ccc(Nc3ncc(C(N)=O)c(NC4CC4)n3)cc2)CC1 [compound 5]; 6
2. Cc1ccc(C(=O)NCC2CC2)cc1-c1ccc2c(c1)NC(=O)C21CCCC1 [compound 3]; 93
3. Cn1cc(-c2cccc(-c3nc(C(=O)NC4C5CC6CC4CC(O)(C6)C5)c(N)nc3N)c2)cn1 (centres unmarked) [compound 4]; 72
4. COc1c(NC(=O)c2ccc(C)c(-c3nnc4c(NCC(C)(C)C)nccn34)c2)cc(C(C)(C)C)cc1NS(C)(=O)=O [compound 7, reference compound]; 82

Could you now consider this next compound?
Need remaining activity at 10 µM, item CC(C)(C)N1CCC(c2cc(-c3ccc(F)cc3Cl)c3cc[n+]([O-])c(-c4c(Cl)cccc4Cl)c3n2)CC1 [compound 2]
92
